Molecular target: dTDP-4-dehydrorhamnose reductase (Mycobacterium tuberculosis (strain ATCC 25618 / H37Rv)) + dTDP-4-dehydrorhamnose 3,5-epimerase (Mycobacterium tuberculosis (strain ATCC 25618 / H37Rv)) (UniProt P9WH09+P9WH11)
Sequence (P9WH09 whole entry, looked up): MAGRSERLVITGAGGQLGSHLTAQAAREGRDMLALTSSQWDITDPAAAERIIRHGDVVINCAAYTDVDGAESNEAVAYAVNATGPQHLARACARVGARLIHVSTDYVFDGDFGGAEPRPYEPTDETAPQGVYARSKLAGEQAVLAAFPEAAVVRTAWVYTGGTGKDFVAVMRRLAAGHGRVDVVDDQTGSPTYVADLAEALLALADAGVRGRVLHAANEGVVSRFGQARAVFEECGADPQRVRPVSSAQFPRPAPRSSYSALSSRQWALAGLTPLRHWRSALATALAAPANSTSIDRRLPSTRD
Sequence (P9WH11 whole entry, looked up): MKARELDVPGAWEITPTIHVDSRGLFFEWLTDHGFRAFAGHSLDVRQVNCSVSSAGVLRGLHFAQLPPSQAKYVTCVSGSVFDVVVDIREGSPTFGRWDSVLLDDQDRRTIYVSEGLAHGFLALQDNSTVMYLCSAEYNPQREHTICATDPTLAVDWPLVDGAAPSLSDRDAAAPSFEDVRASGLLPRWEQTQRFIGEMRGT
Assay: M. tuberculosis RmlC/RmlD coupled enzyme inhibitors, primary screen, biochemical, compound mixtures, 384-well, from 1536-well plates (AID 1533)
Settings: RmlC+RmlD coupled enzyme assay, percent inhibition; primary screen in compound mixtures; at 3.6 µM
Screen size: about 160,000 compounds; about 45 (0.03%) were called active. No stated cut-off is given here; in the data, active means inhibition mostly above about 34% (no sharp cut-off); inconclusive means no clear call, values can overlap the other calls; inactive means mostly below about 22%. Shown is part of a subset that was picked to be rich in actives.
Possible outcomes: class 1 = active, class 0 = inactive

{"compound": "COc1ccc(C(C(=O)NC(C)(C)C)N(C(=O)Cn2nnc3ccccc32)c2ccc(C(C)=O)cc2)cc1O (configuration not stated)", "category_label": "class 0"}
{"compound": "C=CCN1C(=O)C(O)(CC(=O)c2ccccn2)c2ccccc21 (configuration not stated)", "category_label": "class 0"}
{"compound": "CC(C)=C(NC(=O)c1ccccc1)C(=O)N/N=C(\\C)c1ccccc1O", "category_label": "class 1"}
{"compound": "Cc1cc(=O)oc2cc(OCCC[n+]3ccccc3)ccc12", "category_label": "class 0"}
{"compound": "CC1=NNC(=O)C1CC(=O)N/N=C/c1ccncc1 (configuration not stated)", "category_label": "class 0"}
{"compound": "N#C/C(=C(\\O)C(F)(F)F)c1nnc2n1CCCCC2", "category_label": "class 0"}
{"compound": "CCn1c(SCC(=O)Nc2sc(C)c(C)c2C#N)nnc1C1CC1", "category_label": "class 0"}
{"compound": "COc1cc(N/C=C2\\CC(=O)NC(C)=C2C#N)cc(OC)c1OC", "category_label": "class 0"}
{"compound": "COc1ccccc1P(=O)(c1ccccc1)c1ccccc1NC(C)=O (configuration not stated)", "category_label": "class 0"}
{"compound": "COc1ccc2[nH]c(=S)cc(C)c2c1", "category_label": "class 0"}
{"compound": "CSc1ccccc1NC(=O)CN(C)CC(=O)Nc1cccc(Br)c1", "category_label": "class 0"}
{"compound": "CCCCSc1nnc2c(n1)OC=Nc1ccccc1-2", "category_label": "class 0"}
{"compound": "CC(C)c1c(O)nc(SCCOc2ccc(Cl)cc2)[nH]c1=O", "category_label": "class 0"}
{"compound": "CC(C)c1nc(SCC(=O)NC(=O)NC(C)(C)C)n[nH]1", "category_label": "class 0"}
{"compound": "Cn1nc(C(C)(C)C)c([N+](=O)[O-])c1C(N)=O", "category_label": "class 0"}
{"compound": "COc1ccc([N+](=O)[O-])cc1N(CC(O)CN(CC(C)C)CC(C)C)S(=O)(=O)c1ccc(C)cc1 (configuration not stated)", "category_label": "class 0"}
{"compound": "O=C1/C(=C/c2coc3ccc(O)cc3c2=O)SC(=S)N1c1ccccc1", "category_label": "class 0"}
{"compound": "CN(CCC1CCOCC1)Cc1cn[nH]c1-c1ccc(-c2ccccc2)cc1", "category_label": "class 0"}
{"compound": "O=S(=O)(Nc1ccc(OC(F)(F)F)cc1)c1cccc2nonc12", "category_label": "class 0"}
{"compound": "Cn1c(SCC(=O)c2ccc(F)cc2)nnc1-c1ccccn1", "category_label": "class 0"}
{"compound": "O=C(O)CCc1nc2cc(Cl)ccc2n(Cc2ccccc2)c1=O", "category_label": "class 0"}
{"compound": "OCC(O)CN(c1ccccc1)c1ccccc1 (configuration not stated)", "category_label": "class 0"}
{"compound": "COc1cc(CN2CCNC(=O)C2CC(=O)NCCc2ncccc2C)cc(OC)c1 (configuration not stated)", "category_label": "class 0"}
{"compound": "CNC(=O)C(NC(=O)c1ccccc1)=C(C)C", "category_label": "class 0"}
{"compound": "COc1ccc(/C=N/NS(=O)(=O)c2ccc(NC(C)=O)cc2)cc1", "category_label": "class 0"}
{"compound": "Cn1nc(C(F)(F)F)c(-c2ccc(F)cc2)c1NC(=O)CSCC(=O)O", "category_label": "class 0"}
{"compound": "Cn1cc(S(=O)(=O)NC(c2ccccc2)c2ccccc2)c(=O)n(C)c1=O", "category_label": "class 0"}
{"compound": "O=C1C2C3C=CC(C3)C2C(=O)N1c1ccc(S(=O)(=O)Nc2nccs2)cc1 (configuration not stated)", "category_label": "class 0"}
{"compound": "CN1CCN(c2ncc3c(n2)CC(c2ccccc2F)CC3=O)CC1 (configuration not stated)", "category_label": "class 0"}
{"compound": "O=S(=O)(NCCc1csc(-c2ccccc2)n1)c1cccnc1", "category_label": "class 0"}
{"compound": "CC(=O)NC(CC(=O)Nc1nccs1)c1ccccc1 (configuration not stated)", "category_label": "class 0"}
{"compound": "CN1CCc2nc(SC(C(=O)O)c3ccccc3)c(C#N)c(-c3cccs3)c2C1 (configuration not stated)", "category_label": "class 0"}
{"compound": "CC(=O)Nc1ccc(CC#N)cc1", "category_label": "class 0"}
{"compound": "COc1ccc(/C=C/c2nnc(NC(=O)C(C)C)s2)cc1", "category_label": "class 0"}
{"compound": "CCOC(=O)CNC(=O)CSc1ccc2nnc(-c3cccnc3)n2n1", "category_label": "class 0"}
{"compound": "Cc1nc2ccccn2c1C(=O)NN=C1CCN(C)CC1", "category_label": "class 0"}
{"compound": "COc1cccc(CNn2cn[nH]c2=S)c1OCc1ccccc1", "category_label": "class 0"}
{"compound": "Cc1ccc(/C=C/C(=O)O)cc1S(=O)(=O)N1CCC(Cc2ccccc2)CC1", "category_label": "class 0"}
{"compound": "C=CCc1cccc2cc(C(=O)NC3CCCC3)c(=O)oc12", "category_label": "class 0"}
{"compound": "COc1ccc(NC(=O)CSc2ncnc3[nH]ncc23)cc1", "category_label": "class 0"}
{"compound": "CN(C)CCOc1cccc(Br)c1", "category_label": "class 0"}
{"compound": "O=C1/C(=C/c2cccs2)SC(=S)N1C1CCS(=O)(=O)C1 (configuration not stated)", "category_label": "class 0"}
{"compound": "CCc1ccc(-n2c(SCc3cc(=O)n4cc(Br)ccc4n3)nc3[nH]ncc3c2=O)cc1", "category_label": "class 0"}
{"compound": "CCC/C(C)=N\\Nc1nc2c(c(=O)n(C)c(=O)n2C)n1C", "category_label": "class 0"}
{"compound": "CCC1CCCCN1C(=O)CSc1nc2c(c(=O)n(C)c(=O)n2C)n1C (configuration not stated)", "category_label": "class 0"}
{"compound": "O=S(=O)(NC(=S)Nc1ccccc1)c1ccc(F)cc1", "category_label": "class 0"}
{"compound": "O=C(Nc1ccccc1)Nc1ccc(C(F)(F)F)cn1", "category_label": "class 0"}
